# TEST TARGET: Genome polyprotein (Poliovirus type 1 (strain Mahoney)) (UniProt P03300)
# Sequence (P03300 1749-2209 limits assumed): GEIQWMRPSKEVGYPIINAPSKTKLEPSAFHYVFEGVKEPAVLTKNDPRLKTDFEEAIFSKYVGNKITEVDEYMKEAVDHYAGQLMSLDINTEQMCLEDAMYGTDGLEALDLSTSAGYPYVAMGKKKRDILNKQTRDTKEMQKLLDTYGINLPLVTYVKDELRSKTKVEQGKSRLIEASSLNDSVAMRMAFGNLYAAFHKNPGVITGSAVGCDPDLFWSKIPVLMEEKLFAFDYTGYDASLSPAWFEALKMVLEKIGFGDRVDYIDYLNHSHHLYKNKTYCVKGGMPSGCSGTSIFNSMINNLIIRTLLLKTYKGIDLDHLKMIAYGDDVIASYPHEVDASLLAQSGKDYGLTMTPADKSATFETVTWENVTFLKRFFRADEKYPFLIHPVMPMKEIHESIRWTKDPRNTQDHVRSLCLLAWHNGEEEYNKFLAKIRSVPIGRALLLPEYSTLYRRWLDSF
# ASSAY DETAILS: poliovirus RdRp elongation inhibitors, primary screen, biochemical, fluorescence polarization, total intensity (AID 588519)
# RECORDED CONDITIONS: poliovirus polymerase elongation, measured here: FP z-score, stronger effect = lower value
Screen size: about 150,000 compounds; about 1,000 (0.67%) were called active. Only a selection was taken, and actives are over-represented in it overall.
Records here are stratified by z-score; strata: LOW (below -0.3), MEDIUM (-0.3 to below 0.2), HIGH (0.2 or more)

{"columns": ["MOLECULE", "DISCRETE LABEL"],
 "data": [
  ["Cc1cccc(OCCCC(=O)Nc2sc3c(c2C(N)=O)CCC(C)C3)c1 (stereo not given)", "LOW"],
  ["O=C(Cc1ccccc1)Nc1sc2c(c1C(=O)Nc1ccc(Br)cc1)CCC2", "MEDIUM"],
  ["O=C1CCC(=O)N1C(c1ccccc1)c1ccccc1", "HIGH"],
  ["O=C(ON1C(=O)CCC1=O)c1ccccc1", "LOW"],
  ["O=C(CSc1nnc2ccccn12)c1ccccc1", "MEDIUM"],
  ["O=C(CCc1ccccc1)NCC1COC2(CCCCC2)O1 (stereo not given)", "HIGH"],
  ["O=C(CSc1ccccc1)c1ccccc1", "LOW"]
]}

----------
# TEST TARGET: Genome polyprotein (Poliovirus type 1 (strain Mahoney)) (UniProt P03300)
# ASSAY DETAILS: poliovirus RdRp elongation inhibitors, primary screen, biochemical, fluorescence polarization, total intensity (AID 588519)
# RECORDED CONDITIONS: poliovirus polymerase elongation, measured here: FP z-score, stronger effect = lower value
Among all 150,000 compounds or so, about 1,000 (0.67%) were called active. Many of the other results were omitted from the sample, so actives are more common in it than they were.
z-score for assorted compounds

{"columns": ["COMPOUND", "TEST TARGET", "z-score"],
 "data": [
  ["O=C1Nc2ccccc2N(c2ccccc2)N1", "Genome polyprotein (Poliovirus type 1 (strain Mahoney)) (UniProt P03300)", 0.4],
  ["c1ccc2cc3cnccc3cc2c1", "Genome polyprotein (Poliovirus type 1 (strain Mahoney)) (UniProt P03300)", -0.3],
  ["CC(C)c1ccc(C2CC(=O)N3CN(C4CCCCC4)CSC3=C2C#N)cc1 (configuration not stated)", "Genome polyprotein (Poliovirus type 1 (strain Mahoney)) (UniProt P03300)", -3.5],
  ["O=C1CCCCCN1Cc1nnc(SCN2C(=O)c3ccccc3C2=O)n1-c1ccccn1", "Genome polyprotein (Poliovirus type 1 (strain Mahoney)) (UniProt P03300)", 0.4],
  ["CCOC(=O)c1cnc2c(C)c(C)ccc2c1NCCCN(C)C", "Genome polyprotein (Poliovirus type 1 (strain Mahoney)) (UniProt P03300)", -5],
  ["COc1ccc(Cc2nnc(SCC(=O)Nc3ccc(S(=O)(=O)N4CCCCCC4)cc3)o2)cc1", "Genome polyprotein (Poliovirus type 1 (strain Mahoney)) (UniProt P03300)", 0.4],
  ["COc1ccc(-c2csc(=Nc3ccccc3)n2C)cc1", "Genome polyprotein (Poliovirus type 1 (strain Mahoney)) (UniProt P03300)", 0.5],
  ["Cc1c(C(=O)NC(C)CCc2ccccc2)oc2c1C(=O)CCC2 (configuration not stated)", "Genome polyprotein (Poliovirus type 1 (strain Mahoney)) (UniProt P03300)", 0],
  ["COc1ccc(OCCOc2ccccc2F)cc1", "Genome polyprotein (Poliovirus type 1 (strain Mahoney)) (UniProt P03300)", 1.2],
  ["CCOC(=O)c1c(N)sc2c1CC(C)(C)OC2", "Genome polyprotein (Poliovirus type 1 (strain Mahoney)) (UniProt P03300)", 0.4],
  ["Sc1ccc2ccccc2c1", "Genome polyprotein (Poliovirus type 1 (strain Mahoney)) (UniProt P03300)", -1.5],
  ["COc1cc(/C=N/NS(=O)(=O)c2cc(C)ccc2C)cc(OC)c1O", "Genome polyprotein (Poliovirus type 1 (strain Mahoney)) (UniProt P03300)", 0.3]
]}

----------
# TEST TARGET: Genome polyprotein (Poliovirus type 1 (strain Mahoney))
# ASSAY DETAILS: poliovirus RdRp elongation inhibitors, primary screen, biochemical, fluorescence polarization, total intensity (AID 588519)
# RECORDED CONDITIONS: poliovirus polymerase elongation, measured here: total intensity read-out, stronger effect = lower value, compound at 16.7 µg/mL
Out of some 150,000 compounds screened, about 1,000 (0.67%) were called active. The sample holds actives, similar compounds and a random draw of the others, so the mix is not that of the screen.
MEASUREMENT TYPE: % elongation (%)

{"columns": ["COMPOUND", "TEST TARGET", "OBSERVED"],
 "data": [
  ["O=C1S/C(=C/c2cc3c(cc2Cl)OCO3)C(=O)N1c1ccccc1", "Genome polyprotein (Poliovirus type 1 (strain Mahoney))", 103],
  ["N#Cc1c(N)n(Cc2ccc(Cl)cc2)c2nc3ccccc3nc12", "Genome polyprotein (Poliovirus type 1 (strain Mahoney))", 85],
  ["CCOc1ccc(N2CC(c3nc4ccccc4n3CCOc3ccc(OC)cc3)CC2=O)cc1 (stereo not given)", "Genome polyprotein (Poliovirus type 1 (strain Mahoney))", 107],
  ["Cc1ccc(-n2c(=O)c3cccnc3n2CC(=O)Nc2ccccc2C(F)(F)F)cc1C", "Genome polyprotein (Poliovirus type 1 (strain Mahoney))", 105],
  ["CC(c1ccccc1)n1c(N)c(C#N)c2nc3ccccc3nc21 (stereo not given)", "Genome polyprotein (Poliovirus type 1 (strain Mahoney))", 106],
  ["Cc1cccc(-n2c(Cn3ccc(C)n3)n[nH]c2=S)c1", "Genome polyprotein (Poliovirus type 1 (strain Mahoney))", 105],
  ["CC(C)(C)c1ccc(C(=O)NCCn2c(N)c(C#N)c3nc4ccccc4nc32)cc1", "Genome polyprotein (Poliovirus type 1 (strain Mahoney))", 112],
  ["COc1ccc(OCCCn2c(C3CC(=O)N(c4ccc(F)cc4)C3)nc3ccccc32)cc1 (stereo not given)", "Genome polyprotein (Poliovirus type 1 (strain Mahoney))", 110],
  ["Cc1noc(C)c1CSc1nnc(-c2ccccc2Br)n1Cc1ccccc1", "Genome polyprotein (Poliovirus type 1 (strain Mahoney))", 102],
  ["CC(C)c1ccc(NC(=O)Cn2c3ncccc3c(=O)n2-c2ccccc2)cc1", "Genome polyprotein (Poliovirus type 1 (strain Mahoney))", 49]
]}

----------
# TEST TARGET: Genome polyprotein (Poliovirus type 1 (strain Mahoney)) (UniProt P03300)
# ASSAY DETAILS: poliovirus RdRp elongation inhibitors, primary screen, biochemical, fluorescence polarization, total intensity (AID 588519)
# RECORDED CONDITIONS: poliovirus polymerase elongation, measured here: FP z-score, stronger effect = lower value
The whole screen tested about 150,000 compounds, of which about 1,000 (0.67%) were called active. Many of the other results were omitted from the sample, so actives are more common in it than they were.
The entries below come with measured z-score values attached.
MEASUREMENT TYPE: z-score

{"columns": ["MOLECULE", "TEST TARGET", "MEASUREMENT TYPE", "OBSERVED"],
 "data": [
  ["CCc1cc(=O)oc2c(C)c3c(cc12)CN(Cc1ccccc1)CO3", "Genome polyprotein (Poliovirus type 1 (strain Mahoney)) (UniProt P03300)", "z-score", -0.7],
  ["COc1ccccc1Cn1cccc1C1=NC(C(C)C)CO1 (stereo not given)", "Genome polyprotein (Poliovirus type 1 (strain Mahoney)) (UniProt P03300)", "z-score", 0.2],
  ["COc1ccc2c(c1)Cc1sc(NC(=O)c3ccccc3Br)nc1-2", "Genome polyprotein (Poliovirus type 1 (strain Mahoney)) (UniProt P03300)", "z-score", -7.3],
  ["O=C(Nc1ccc(S(=O)(=O)C(F)F)cc1)c1cccnc1N1CCCC1", "Genome polyprotein (Poliovirus type 1 (strain Mahoney)) (UniProt P03300)", "z-score", -0.3],
  ["COc1ccc(Cl)cc1N(C)C(=O)c1cc2c(=O)oc3ccc(C)cc3c2s1", "Genome polyprotein (Poliovirus type 1 (strain Mahoney)) (UniProt P03300)", "z-score", 0.4],
  ["O=C(CSc1nc2c(c(=O)[nH]1)CN(Cc1ccc3c(c1)OCO3)CC2)Nc1cc(F)ccc1F", "Genome polyprotein (Poliovirus type 1 (strain Mahoney)) (UniProt P03300)", "z-score", 0],
  ["Cc1ccc2oc(=O)c3cc(C(=O)NC4CCCC4)sc3c2c1", "Genome polyprotein (Poliovirus type 1 (strain Mahoney)) (UniProt P03300)", "z-score", 0.9],
  ["Cc1nnc2ccc(-c3ccc(NS(=O)(=O)c4ccc5c(c4)OCCO5)cc3)nn12", "Genome polyprotein (Poliovirus type 1 (strain Mahoney)) (UniProt P03300)", "z-score", -1.2],
  ["O=c1[nH]c(CN2CCCC2c2ccc3c(c2)OCCO3)nc2cc(Cl)ccc12 (stereo not given)", "Genome polyprotein (Poliovirus type 1 (strain Mahoney)) (UniProt P03300)", "z-score", 0],
  ["CCN(CC)CCNC(=O)c1cc2c(=O)oc3ccc(C)cc3c2s1", "Genome polyprotein (Poliovirus type 1 (strain Mahoney)) (UniProt P03300)", "z-score", -1.5]
]}

Taken from PubChem BioAssay AID588519.
